Listing of entries alongside the reported TGI.
system: A549 NSCLC; test: NCI tumour cell line growth inhibition, 48 h
Metric: TGI (µM)

Molecule: Cc1c2cccc-2ccc2c1[nH]c1ccccc12
Unit annotation: µM
Op: =
Measurement: 5.65

Molecule: c1ccc(CC(NCCNC(Cc2ccccc2)c2ccccc2)c2ccccc2)cc1 (stereo not drawn)
Unit annotation: µM
Op: =
Measurement: 4.69

Molecule: O=C(CSc1nc2ccc(I)cc2c(=O)n1Cc1ccccc1)NN1C(=O)CCC1=O
Unit annotation: µM
Op: >
Measurement: 100

----------
tested on: KM12 colon; assay: NCI tumour cell line growth inhibition, 48 h
Listing of entries alongside the reported TGI.

Compound: CC(C)(C)c1cc(CCC(=O)Nc2ccc(Cl)cc2Cl)nc(N)n1
Measured on: KM12 colon
Unit annotation: µM
Op: >
TGI: 100

Compound: Cc1ccc2c(c1)CC1(C2=O)[C@H](c2ccccc2)C2C(=O)c3ccc(C)cc3C2[C@H]1c1ccccc1 (stereo not given in full)
Measured on: KM12 colon
Unit annotation: µM
Op: >
TGI: 100

Compound: c1cnc2[nH]cc(-c3csc(-c4cn(CCCN5CCCCC5)c5ccccc45)n3)c2c1
Measured on: KM12 colon
Unit annotation: µM
Op: =
TGI: 3.13

Compound: Nc1ncc(/C=N/O)c(NCC2(CO)CC(CCc3ccccc3)C2)n1 (stereo not given)
Measured on: KM12 colon
Unit annotation: µM
Op: =
TGI: 31.6

Compound: CC[C@@]1(O)C(=O)OCc2c1cc1n(c2=O)Cc2cc3c(N)cccc3nc2-1
Measured on: KM12 colon
Unit annotation: µM
Op: =
TGI: 11.6

Compound: COc1ccc2[nH]c3c(=O)[nH]ncc3c2c1
Measured on: KM12 colon
Unit annotation: µM
Op: >
TGI: 100

Compound: Cc1cc(S(=O)(=O)O)c(NC(=O)c2oc3cc(O)ccc3c(=O)c2C)cc1Cl
Measured on: KM12 colon
Unit annotation: µM
Op: >
TGI: 100

Compound: CC1=C2C(=O)c3ccccc3C(=O)[C@H]2C[C@@H](N2CCCCCC2=O)O1
Measured on: KM12 colon
Unit annotation: µM
Op: =
TGI: 30.7

Compound: Nc1ncnc2c1c(-c1ccc(Oc3ccccc3)cc1)nn2C[C@@H]1SSC[C@@H]1O
Measured on: KM12 colon
Unit annotation: µM
Op: =
TGI: 12.1

Compound: CC(=O)NC1=C(NCC(C)C)C(=O)c2ccccc2C1=O
Measured on: KM12 colon
Unit annotation: µM
Op: >
TGI: 100

----------
Listing of entries alongside the reported TGI.
system: M14 melanoma; test: NCI tumour cell line growth inhibition, 48 h
Metric: TGI

Compound: CC12CC(c3ccccc3O1)C(C(=O)Nc1cccc(F)c1)C(=O)N2 (stereo unspecified)
Measured on: M14 melanoma
Measurement: > 100 µM
--
Compound: CCOC(=O)c1nc2ccccc2nc1NCc1ccc(Cl)cc1Cl
Measured on: M14 melanoma
Measurement: > 100 µM
--
Compound: O=C1CSc2nnc(CCCCCCCCc3nnc4n3NC(=O)CS4)n2N1
Measured on: M14 melanoma
Measurement: > 100 µM
--
Compound: COc1ccc(C(=O)c2ccc(-n3cc(/C=C/[N+](=O)[O-])c4ccccc43)cc2)cc1
Measured on: M14 melanoma
Measurement: > 74.5 µM
--
Compound: O=C(O)C1C(C(=O)O)C2(Cl)C(Cl)=C(Cl)C1(Cl)C2(Cl)Cl.[Cd] (stereo unspecified)
Measured on: M14 melanoma
Measurement: 38.9 µM
--
Compound: Cc1ccccc1NC(=O)C(=O)CC(=O)c1ccc([N+](=O)[O-])cc1
Measured on: M14 melanoma
Measurement: > 100 µM
--
Compound: COc1ccc(/C=C/C(=O)C(C)(C)Br)cc1
Measured on: M14 melanoma
Measurement: 3.79 µM
--
Compound: OC12CCCCCC1(N1CCOCC1)c1ccccc12 (stereo unspecified)
Measured on: M14 melanoma
Measurement: > 100 µM
--
Compound: O=c1c2c(nc3n1CCC3)sc1c(O)c(Br)ccc12
Measured on: M14 melanoma
Measurement: > 100 µM
--
Compound: Cc1cc(NC(=O)NC(=O)c2ccccc2N(C)C)ccc1Oc1ncc(Br)cn1
Measured on: M14 melanoma
Measurement: > 63.1 µM
--
Compound: NC(N)=N/N=C/c1c(-c2ccc(Cl)c([N+](=O)[O-])c2)nc2n1CCS2
Measured on: M14 melanoma
Measurement: 29.1 µM

The measured values listed here are drawn from PubChem BioAssay (NCI).
